Tested on: DU-145
Test description: Growth inhibition of human DU145 cells after 96 hrs by trypan blue exclusion assay
Assay type: functional
Condition notes: DU-145, 96 h
Returns: string. Value is 1 if measured GI50 is below 10 µM, and -1 if it is greater than or equal to it.

>  <Compound>
O=C(/C(=C\c1ccc(O)c([N+](=O)[O-])c1)SCc1ccc(Br)cc1)C1CCNC1 (centres undefined)

>  <Class name>
-1

$$$$
>  <Compound>
COc1cc(OC)c(/C=C(\C(=O)c2ccc(Br)cc2)S(=O)(=O)c2ccc(Br)cc2)c(OC)c1

>  <Class name>
-1

$$$$
>  <Compound>
O=C(O)c1ccc(C(=O)/C(=C\c2ccc(Cl)c([N+](=O)[O-])c2)SCc2ccc(Cl)cc2Cl)cc1

>  <Class name>
1

$$$$
>  <Compound>
Cc1ccc(CS/C(=C/c2ccccc2OCc2ccccc2)C(=O)c2ccc(Cl)cc2)cc1

>  <Class name>
1

$$$$
>  <Compound>
O=C(/C(=C\c1cc(Cl)c(O)c(Cl)c1)S(=O)(=O)Cc1ccc(Br)cc1)c1ccc(Br)cc1

>  <Class name>
-1

$$$$
>  <Compound>
Cc1ccc(CS(=O)(=O)/C(=C/c2ccc(C)s2)C(=O)c2ccc(Cl)cc2)cc1

>  <Class name>
-1

$$$$
>  <Compound>
O=C(/C(=C\c1ccc([N+](=O)[O-])c(O)c1)Sc1ccc(Br)cc1)c1c(F)c(F)c(F)c(F)c1F

>  <Class name>
1

$$$$
>  <Compound>
Cc1ccc(S(=O)(=O)/C(=C/c2ccc(N(C)C)cc2)C(=O)c2ccc(Br)cc2)cc1

>  <Class name>
-1

$$$$
>  <Compound>
COc1ccc(C=C(C(=O)c2ccc(OC)cc2)S(=O)(=O)Cc2ccc([N+](=O)[O-])cc2)cc1

>  <Class name>
-1

$$$$
>  <Compound>
Cc1ccc(CS/C(=C/c2ccc(O)c(O)c2O)C(=O)c2ccc(Cl)cc2)cc1

>  <Class name>
-1

$$$$
>  <Compound>
COc1ccc(/C=C(\C(=O)c2ccc(Br)cc2)S(=O)(=O)c2ccc(Br)cc2)c(OC)c1

>  <Class name>
1

$$$$
>  <Compound>
COc1cc(OC)c(/C=C(\C(=O)c2ccc(Cl)cc2)S(=O)(=O)c2ccc(Br)cc2)c(OC)c1

>  <Class name>
-1

$$$$
>  <Compound>
Cc1ccc(S(=O)(=O)/C(=C/c2c(F)c(F)c(F)c(F)c2F)C(=O)c2ccc(Cl)cc2)cc1

>  <Class name>
-1

$$$$
>  <Compound>
O=C(/C(=C\c1ccc([N+](=O)[O-])c(O)c1)SCc1ccc(Br)cc1)c1ccc([N+](=O)[O-])c(Cl)c1

>  <Class name>
1

$$$$
>  <Compound>
O=C(/C(=C/c1ccc(Cl)cc1)Cc1ccc(Cl)c(Cl)c1)c1ccc(Cl)cc1Cl

>  <Class name>
1

$$$$
>  <Compound>
COc1cc(/C=C(/SCc2ccc(Br)cc2)C(=O)c2ccc(C(=O)O)cc2)ccc1F

>  <Class name>
1

$$$$
>  <Compound>
CN(C)c1ccc(/C=C(/SCc2ccc(F)cc2)C(=O)c2ccc(Br)cc2)cc1

>  <Class name>
-1

$$$$
>  <Compound>
O=C(/C(=C\c1ccc(Br)cc1)S(=O)(=O)Cc1ccc(F)cc1)c1ccc(Cl)cc1

>  <Class name>
-1

$$$$
>  <Compound>
COc1cc(OC)c(/C=C(\C(=O)c2ccc(Br)cc2)S(=O)(=O)c2ccc(C)cc2)c(OC)c1

>  <Class name>
-1

$$$$
